Molecular target: T1, CD226 (Homo sapiens (Human), UniProt Q15762 19-336)
T1 sequence: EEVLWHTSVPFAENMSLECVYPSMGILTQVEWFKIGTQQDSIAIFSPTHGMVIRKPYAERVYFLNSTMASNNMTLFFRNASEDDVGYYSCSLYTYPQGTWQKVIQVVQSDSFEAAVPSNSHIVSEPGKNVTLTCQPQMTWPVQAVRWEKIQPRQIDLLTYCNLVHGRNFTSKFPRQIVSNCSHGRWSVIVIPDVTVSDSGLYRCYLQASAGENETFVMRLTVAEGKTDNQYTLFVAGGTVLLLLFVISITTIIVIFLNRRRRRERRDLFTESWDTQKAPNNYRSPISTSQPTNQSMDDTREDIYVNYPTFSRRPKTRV
Assay: flow cytometry, Fc fusion at 100 nM, CD226-transfected cells
quantity: MFI at 100 nM
Please report the result as a number followed by the unit.

{"columns": ["binder", "MFI at 100 nM"],
 "data": [
  ["variant CD155 IgV-Fc S52M/L104Q (Fc fusion, not shown: a dimerising Fc or GST) WPPPGTGDVVVQAPTQVPGFLGDSVTLPCYLQVPNMEVTHVSQLTWARHGEMGSMAVFHQTQGPSYSESKRLEFVAARLGAELRNASLRMFGLRVEDEGNYTCQFVTFPQGSRSVDIWLRVL", "2250 MFI"],
  ["variant CD155 IgV-Fc Q62Y (Fc fusion, not shown: a dimerising Fc or GST) WPPPGTGDVVVQAPTQVPGFLGDSVTLPCYLQVPNMEVTHVSQLTWARHGESGSMAVFHQTYGPSYSESKRLEFVAARLGAELRNASLRMFGLRVEDEGNYTCLFVTFPQGSRSVDIWLRVL", "2620 MFI"]
]}

Let us move to another entry and its MFI at 100 nM.
Name the reported MFI at 100 nM value associated with the binder variant CD155 IgV-Fc S42G (Fc fusion, not shown: a dimerising Fc or GST) WPPPGTGDVVVQAPTQVPGFLGDSVTLPCYLQVPNMEVTHVGQLTWARHGESGSMAVFHQTQGPSYSESKRLEFVAARLGAELRNASLRMFGLRVEDEGNYTCLFVTFPQGSRSVDIWLRVL 2450 MFI

Each recorded value in this set is attributed to patent US20210130436A1.
